TEST_SUMMARY: Approximate solubility in solvents at 25° C. and 50° C. (visual observation)
Format: physicochemical
EXPERIMENTAL_CONDITIONS: organic solvent or mixture, thermodynamic from solid; MTBE (Methyl tert-butyl ether), 25° C., target conc. = 250 mg/mL
Protocol: Max. volume of each solvent added was 1 mL. Approximate solubility was determined by visual observation. Max volume of each solvent added was 1 mL. Approximate solubility was determined by visual observation.
READOUT_LABEL: Solubility

Just so you know, measured Solubility for COc1cc(-c2cn(C)c(=O)c(C)c2C)cc(OC)c1CN1CC[C@H](N2CCN(c3ccc(N[C@H]4CCC(=O)NC4=O)cc3F)CC2)C(F)(F)C1 came out at < 5000 µg/mL

###

TEST_SUMMARY: Pharmacokinetic study in male CD1 mice
Assay type: in vivo, mouse
EXPERIMENTAL_CONDITIONS: male, CD1, mouse, plasma, oral, 10 mg/kg, 10 mg/kg PO, 24 h; read-out: Plasma Concentration, individual mice
Description: The pharmacokinetic (PK) profile in plasma of Compound 1 was determined in male CD1 mice following single dose intravenous (IV) (2 mg/kg) and per os (PO) (10 mg/kg) administration. […] All animals were housed in cages with clean bedding and maintained and monitored for good health and at the discretion of the laboratory animal veterinarian. […] After blood collection from each animal, the sample from that animal was recorded in the sample collection sheet. […]
READOUT_LABEL: concentration at 24 h (ng/mL)
Response body: numeric value in ng/mL, unit text excluded.

Record COc1cc(-c2cn(C)c(=O)c(C)c2C)cc(OC)c1CN1CC[C@H](N2CCN(c3ccc(N[C@H]4CCC(=O)NC4=O)cc3F)CC2)C(F)(F)C1 [Compound 1] . Reported concentration at 24 h: 38.2

###

TEST_SUMMARY: Pharmacokinetic study in male Sprague Dawley rats
Format: in vivo, rat
EXPERIMENTAL_CONDITIONS: rat, plasma; 10 mg/kg PO, Male Sprague Dawley Rats, mean
READOUT_LABEL: AUC(0-t)
Answer shape: numeric part, then the unit.

The reported AUC(0-t) of the molecule COc1cc(-c2cn(C)c(=O)c(C)c2C)cc(OC)c1CN1CC[C@H](N2CCN(c3ccc(N[C@H]4CCC(=O)NC4=O)cc3F)CC2)C(F)(F)C1 was 6290 ng·h/mL

###

TEST_SUMMARY: Pharmacokinetic study in male Sprague Dawley rats
Assay type: in vivo, rat
EXPERIMENTAL_CONDITIONS: male, Sprague Dawley, rat, plasma, oral, 10 mg/kg, 10 mg/kg PO, Male Sprague Dawley Rats, 4 h, average; read-out: Plasma Concentration Average
READOUT_LABEL: concentration at 4 h (ng/mL)
I only need the number, in ng/mL, no unit after it.

# concentration at 4 h (compound: COc1cc(-c2cn(C)c(=O)c(C)c2C)cc(OC)c1CN1CC[C@H](N2CCN(c3ccc(N[C@H]4CCC(=O)NC4=O)cc3F)CC2)C(F)(F)C1 ) is 506

###

TEST_SUMMARY: Pharmacokinetic study in male CD1 mice
Format: in vivo, mouse
EXPERIMENTAL_CONDITIONS: male, CD1, mouse, plasma, po, 10 mg/kg, male CD1 mice, 10 mg/kg PO, Mean, second AUClast column
READOUT_LABEL: AUC(0-t) (ng·h/mL)
Please reply with the bare figure in ng·h/mL and do not write the unit itself.

The measured AUC(0-t) associated with COc1cc(-c2cn(C)c(=O)c(C)c2C)cc(OC)c1CN1CC[C@H](N2CCN(c3ccc(N[C@H]4CCC(=O)NC4=O)cc3F)CC2)C(F)(F)C1 reads 20200

Origin of values: patent US20240245677A1
